Where do these numbers come from? They come from patent US20210380675A1.

SYSTEM TESTED: T1, human IL-36α(Q12), truncated (human, UniProt Q9UHA7 6-158)
T1 construct: Untagged after removal of the His-SUMO tag
T1 sequence: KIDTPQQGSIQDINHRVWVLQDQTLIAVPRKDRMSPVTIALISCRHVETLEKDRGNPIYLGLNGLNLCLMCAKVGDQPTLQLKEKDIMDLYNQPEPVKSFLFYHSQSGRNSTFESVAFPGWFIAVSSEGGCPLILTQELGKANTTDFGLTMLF
ASSAY NOTES: SPR, Biacore T200, antibody on chip, IL-36 as analyte, 1:1 Langmuir fit
Overview of reported kon across a group of binders:
The reply should be a number in M⁻¹ s⁻¹, with the unit left off.

Quick check: kon of m/h 144L249B (antibody, human IgG1, lambda, V domains shown, Mouse VH/VL joined to human IgG1 constant and human Ig lambda (IGLC2) constant; also called chimeric mouse/human 144L249B) VH: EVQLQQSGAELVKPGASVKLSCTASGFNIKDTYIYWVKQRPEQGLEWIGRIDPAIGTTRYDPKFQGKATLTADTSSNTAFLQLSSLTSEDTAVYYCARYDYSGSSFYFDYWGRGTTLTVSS VL: QAVVTQESALTTSPGETVTLTCRSSTGAVTTSNYANWVQEKPDHLFTGLIGGTNNRAPGVPARFSGSLIGDKAALTITGAQTEDEAIYFCALWYSNHLVFGGGTKLTVLG ?
805000

Further cases:
Entry under review: m/h 144D666C (antibody, human IgG1, lambda, V domains shown, Mouse VH/VL joined to human IgG1 constant and human Ig lambda (IGLC2) constant; also called chimeric mouse/human 144D666C) VH: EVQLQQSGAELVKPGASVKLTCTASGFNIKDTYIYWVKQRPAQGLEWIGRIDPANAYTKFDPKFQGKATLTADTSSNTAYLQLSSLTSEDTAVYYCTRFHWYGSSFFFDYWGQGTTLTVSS VL: QAVVTQESALTTSPGETVTLTCRSSTGAVTTSNYANWVQEKPDHLFTGLIGGTDNRPPGVPARFSGSLIGDKAALTITGAQTEDEAIYFCALWYSNLWVFGGGTKLTVLG . Reported kon?
476000

Now consider m/h 144J171G (antibody, human IgG1, lambda, V domains shown, Mouse VH/VL joined to human IgG1 constant and human Ig lambda (IGLC2) constant; also called chimeric mouse/human 144J171G) VH: EVQLQQSGAELVEPGASVKLSCTASGFNIKDTYINWVKQRPEQGLEWIGRIDPANGYTRYAPKFQGKATITSDTSSNTAYLQLSSLTSEDAAVYSCSTLNYYGSSFFFDFWGQGTTLTVSS VL: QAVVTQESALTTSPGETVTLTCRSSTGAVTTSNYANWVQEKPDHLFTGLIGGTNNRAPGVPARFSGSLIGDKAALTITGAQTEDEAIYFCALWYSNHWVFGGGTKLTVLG .
1.24e+06

Would you mind doing m/h 144L124B (antibody, human IgG1, lambda, V domains shown, Mouse VH/VL joined to human IgG1 constant and human Ig lambda (IGLC2) constant; also called chimeric mouse/human 144L124B) VH: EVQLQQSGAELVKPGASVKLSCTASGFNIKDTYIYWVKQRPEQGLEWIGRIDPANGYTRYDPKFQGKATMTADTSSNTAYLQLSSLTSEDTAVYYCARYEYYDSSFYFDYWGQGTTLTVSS VL: QAVVTQESALTTSPGETVTLTCRSSTGAVTTSNYANWVQEKPDHLFTGLIGGTNNRAPGVPARFSGSLIGDKAALTITGAQTEDEAIYFCALWYSNHLVFGGGTKLTVLG as well?
1.22e+07

Next binder: chimeric m/h 144D464A (antibody, human IgG1, lambda, V domains shown, Mouse VH/VL joined to human IgG1 constant and human Ig lambda (IGLC2) constant; also called chimeric mouse/human (m/h) 144D464A antibody) VH: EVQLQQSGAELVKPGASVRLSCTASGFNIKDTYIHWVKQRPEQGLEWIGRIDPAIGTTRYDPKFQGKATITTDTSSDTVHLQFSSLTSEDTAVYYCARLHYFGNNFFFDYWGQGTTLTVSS VL: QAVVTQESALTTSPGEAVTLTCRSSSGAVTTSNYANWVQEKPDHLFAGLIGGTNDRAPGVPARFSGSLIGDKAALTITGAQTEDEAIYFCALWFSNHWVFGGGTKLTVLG
361000
